Data credit: patent US20240124434A1

Answer each item with its documented microsomal CLint at […], 1 µM.
# test protocol: In vitro microsomal stability, human liver microsomes
# Format: in vitro ADME
# run parameters: pH 7.4; intrinsic clearance; human liver microsomes; read-out: Clint @ hLM
One number for each entry, in µL/min/mg.

Here's what some known entries look like.
Cc1c(NC(=O)c2cc(-c3ccccn3)on2)cnn1[C@H](C)c1ccc(C(F)(F)F)cc1C(F)(F)F
25.9
C[C@H](c1ccc(C(F)(F)F)cc1C(F)(F)F)n1cc(NC(=O)c2nnc(-c3cnccn3)s2)cn1
10
O=C(Nc1cnn(Cc2ccc(C(F)(F)F)cc2C(F)(F)F)c1)c1cc(-c2cnccn2)on1
6.5

Moving on to the next compound.
Qu. Can you look up the measured microsomal CLint at […], 1 µM of C[C@H](c1ccc(F)cc1C(F)(F)F)n1cc(NC(=O)c2cc(-c3ccccn3)on2)cn1 for me?
Ans. 51.3
